# System: LOX IMVI
# run_description: NCI tumour cell line growth inhibition, 48 h
Active and inactive are the calls of the source. Cut-off read from the data, not from the text of the source: active = GI50 up to about 1.1 µM and inactive = higher.
property_label: GI50

Sample records with GI50:
CN1C2CCC1C(C(O)c1ccccc1[N+](=O)[O-])C(=O)C2 (centres undefined); 41.7 µM (inactive)
O=C(NC1CCCCC1)NC12CC3CC(CC(F)(C3)C1)C2; > 100 µM (inactive)
CC(=O)OCC1OC(n2c(=O)[nH]c(=O)c3nn[nH]c32)C(OC(C)=O)C(OC(C)=O)C1OC(C)=O (centres undefined); > 100 µM (inactive)

Dear colleague, I am looking for the recorded GI50 of the following molecule: C/C(=N/OC(=O)c1cccc2c(=O)c3ccccc3[nH]c12)[C@H]1CC[C@H]2[C@@H]3CCC4=C/C(=N/OC(=O)c5cccc6c(=O)c7ccccc7[nH]c56)CC[C@]4(C)[C@H]3CC[C@]12C 12.9 µM (inactive)
